Source: the supplement of paper PMC9112550

Test system: Escherichia coli TOP10;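 also: peptides expressed intracellularly from a pBAD plasmid library in pooled LB shake-flask culture, induced with 0.3% L-arabinose, DNA abundance read by NGS, three biological replicates, DESeq2 with apeglm shrinkage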
Assay: shrunken log2 fold change of peptide-encoding DNA abundance (4.5 h post-induction vs induction); higher = less antimicrobial activity (less host growth inhibition)
Conditions: time post-induction: 4.5 h; library: site-saturation at positions 5, 18, 19, 20
Measured shrunken log2 fold change by item

1. RRIRFRPPRLPRPRPRPPCSPRP; 0.0952
2. RRIRWRPPRLPRPRPRPLCHPRP; -0.0785
3. RRIRQRPPRLPRPRPRPETRPRP; -0.0113
4. RRIRCRPPRLPRPRPRPGWKPRP; 0.173
5. RRIRIRPPRLPRPRPRPCFTPRP; -0.519

Read the entry RRIRVRPPRLPRPRPRPTNCPRP and write its reported shrunken log2 fold change.
-0.075

Read the entry RRIRIRPPRLPRPRPRPVFNPRP and write its reported shrunken log2 fold change.
-0.602

Read the entry RRIRRRPPRLPRPRPRPISAPRP and write its reported shrunken log2 fold change.
0.122

Read the entry RRIRWRPPRLPRPRPRPCAMPRP and write its reported shrunken log2 fold change.
-0.272

Read the entry RRIRHRPPRLPRPRPRPSESPRP and write its reported shrunken log2 fold change.
-0.232

Read the entry RRIRIRPPRLPRPRPRPSEMPRP and write its reported shrunken log2 fold change.
-0.553

Read the entry RRIRVRPPRLPRPRPRPGEGPRP and write its reported shrunken log2 fold change.
0.62

Read the entry RRIRTRPPRLPRPRPRPLVIPRP and write its reported shrunken log2 fold change.
-0.44
